Sourced from patent US11420947B2

Tested on: OVCAR-8
assay-method-text: CellTiter-Glo cell viability assay
Assay type: cell-based, Human
cond: OVCAR-8, OVARIAN, Human Ovarian Carcinoma, 72 hours
Procedure: Cell viability in the presence of varying concentrations of the above listed compounds at different time points was used to assess cytotoxicity and the effect of the compounds on cell proliferation. Cell viability was measured by the CellTiter-Glo® cell viability assay from Promega (Madison, Wis.). […] Following treatment, CellTiter-Glo® is added to treatment wells and incubated at 37° C. luminescence values were measured at using a Molecular Devices Spectramax microplate reader […]
attribute-measured: IC50 (nM)
Output spec: scalar in nM, unitless text.

molecule=CC[C@H](C(=O)Nc1ncc(C(=O)NO)s1)c1ccc(OC)cc1 attribute_measured=IC50 endpoint_result=21
molecule="CCC(C(=O)Nc1ncc(C(=O)NO)s1)c1ccc(OC)cc1 (racemic)" attribute_measured=IC50 endpoint_result=36

The value of IC50 measured for the molecule CC[C@@H](C(=O)Nc1ncc(C(=O)NO)s1)c1ccc(OC)cc1 turned out to be 113

---

System: HT-29
assay-method-text: CellTiter-Glo cell viability assay
Type: cell-based
cond: Homo sapiens; HT-29, COLON, CRC, 72 hours
attribute-measured: IC50 (nM)
Output spec: scalar in nM, unitless text.

Guide cases for IC50, answers given:
compound="CCC(C(=O)Nc1ncc(C(=O)NO)s1)c1ccc(OC)cc1 (racemic)" measurement_unit=nM endpoint_result=136
compound=CC[C@@H](C(=O)Nc1ncc(C(=O)NO)s1)c1ccc(OC)cc1 measurement_unit=nM endpoint_result=410

IC50 in this record for CC[C@H](C(=O)Nc1ncc(C(=O)NO)s1)c1ccc(OC)cc1 : 43

---

assay-method-text: Pharmacokinetics studies in mice
Type: in vivo
cond: mouse, in vivo, IV-1 mg/kg, 5% Ethanol 5% Cremophor 90% Saline
attribute-measured: Cmax (ng/mL)
Report as a plain number; the unit ng/mL is understood.

// recorded Cmax for CC[C@H](C(=O)Nc1ncc(C(=O)NO)s1)c1ccc(OC)cc1 : 131

---

System: MC38
assay-method-text: CellTiter-Glo cell viability assay
Format: cell-based, Murine
cond: Mus musculus, MC-38; MC38, MURINE COLON, Colon, 72 hours
Property: IC50; scope: individual compounds
Express it in µM; write the number only.

Look over these answered cases.
compound=CC[C@H](C(=O)Nc1ncc(C(=O)NO)s1)c1ccc(OC)cc1 attribute_measured=IC50 endpoint_result=0.058
compound=CC[C@@H](C(=O)Nc1ncc(C(=O)NO)s1)c1ccc(OC)cc1 attribute_measured=IC50 endpoint_result=0.493

Let us examine a further case.
Summary for this compound, CCC(C(=O)Nc1ncc(C(=O)NO)s1)c1ccc(OC)cc1 (racemic) : IC50 is 0.128

---

assay-method-text: Pharmacokinetics studies in mice
Format: in vivo
cond: mouse, in vivo, IV-1 mg/kg, 5% Ethanol 5% Cremophor 90% Saline
attribute-measured: AUC(0-t) (ng·h/mL)
Respond with the bare value in ng·h/mL.

The molecule identified as CC[C@H](C(=O)Nc1ncc(C(=O)NO)s1)c1ccc(OC)cc1 registered its AUC(0-t) at 106

---

Test system: A375
assay-method-text: CellTiter-Glo cell viability assay
Type: cell-based
cond: Homo sapiens, A-375; A375, MELANOMA, Malignant Melanoma, 72 hours
Measured IC50 by item
Write the value in µM as a bare number.

Sample answers from the record:
compound="CCC(C(=O)Nc1ncc(C(=O)NO)s1)c1ccc(OC)cc1 (racemic) [#1]" endpoint_result=0.269
compound="CC[C@H](C(=O)Nc1ncc(C(=O)NO)s1)c1ccc(OC)cc1 [#1a]" endpoint_result=0.032

Consider the record given below.
Reported IC50 of CC[C@@H](C(=O)Nc1ncc(C(=O)NO)s1)c1ccc(OC)cc1 [#1b] : 0.651
